System: RPMI-8226 leukemia
Assay remarks: NCI tumour cell line growth inhibition, 48 h
Threshold check on TGI: at or above 40 µM gives satisfied, strictly below gives not satisfied.

>  <Compound>
CC(=O)NC1C(OCc2ccccc2)OC(CO)C(O)C1OCC(=O)NC(C(=O)NC(CCC(=O)NCCCCCC(=O)Nc1ccc2c(c1)CN1C(=O)c3ccccc3C1=N2)C(N)=O)C(C)C (centres undefined)

>  <Label value>
satisfied

$$$$
>  <Compound>
Cc1cc(-c2nc3cc(F)ccc3s2)ccc1N

>  <Label value>
satisfied

$$$$
>  <Compound>
COc1ccc(/C(C)=C2\CCCN(Cc3ccccc3)C2)cc1

>  <Label value>
satisfied

$$$$
>  <Compound>
NC1=NC(c2ccc(Cl)cc2)=CC(c2cccc(Cl)c2)S1 (centres undefined)

>  <Label value>
satisfied

$$$$
>  <Compound>
C=C(C(=O)c1ccccc1)C(NC(C)(C)C)c1ccccc1 (centres undefined)

>  <Label value>
not satisfied

$$$$
>  <Compound>
CC(C)c1cnc(-c2cc(Cl)ccc2F)cc1Nc1ccncc1C(=O)NC(CO)CO

>  <Label value>
satisfied

$$$$
>  <Compound>
COc1ccc(-c2nc3sccn3c2-c2ccnc(NCCNS(=O)(=O)c3ccc(C(F)(F)F)cc3)n2)cc1

>  <Label value>
not satisfied

$$$$
>  <Compound>
Cc1ccc(S(=O)(=O)c2ccc(C)cc2[N+](=O)[O-])c([N+](=O)[O-])c1

>  <Label value>
satisfied

$$$$

* * *

System: HOP-92 NSCLC
Assay remarks: NCI tumour cell line growth inhibition, 48 h
Endpoint label: TGI

>  <Molecule>
Cc1nc(C)c(N2CCN(Cc3ccccc3)CC2)c(=O)[nH]1

>  <Recorded value>
> 100 µM

$$$$
>  <Molecule>
O=C1c2cc3c(cc2[C@@H]2C(O)[C@H]4O[C@H]4C4CCN1C42)OCO3 (stereo partly specified)

>  <Recorded value>
> 37.5 µM

$$$$
>  <Molecule>
Cc1c2c(n3c(nc4ccccc43)c1C#N)N(c1ccc(F)cc1)CC2

>  <Recorded value>
> 100 µM

$$$$
>  <Molecule>
Cn1cc(-c2csc(-c3ccccc3)n2)c2cccnc21

>  <Recorded value>
15.4 µM

$$$$
>  <Molecule>
Cc1cn(CC(=S)NCCc2c[nH]c3ccccc23)c(=O)[nH]c1=O

>  <Recorded value>
> 100 µM

$$$$
>  <Molecule>
CCCCCCCCCCCCCCCCCCN(C)CC(COC)OP(=O)([O-])OCC[N+](C)(C)C (stereo unspecified)

>  <Recorded value>
3.33 µM

$$$$
>  <Molecule>
CCN1CCN(Cc2ccc(NC(=O)Nc3nc(-c4cc(OC)c(OC)c(OC)c4)cs3)cc2C(F)(F)F)CC1

>  <Recorded value>
4.23 µM

$$$$
>  <Molecule>
Cc1ccc(NC(=O)c2cccc(OP(=O)(Nc3ccc(C)cc3)Nc3ccc(C)cc3)c2)cc1

>  <Recorded value>
8.93 µM

$$$$
>  <Molecule>
CN1C(=O)C(=Cc2ccc(Br)cc2)C(=O)N(C)C1=O

>  <Recorded value>
> 100 µM

$$$$
>  <Molecule>
CC1=C2CC[C@@]3(C)C(=CCC3O)C2(C)CCC1=O (stereo partly specified)

>  <Recorded value>
> 100 µM

$$$$
>  <Molecule>
Cc1cc(NS(=O)(=O)c2ccc(NO)cc2)no1

>  <Recorded value>
> 100 µM

$$$$

* * *

Test system: OVCAR-5 ovarian
Assay remarks: NCI tumour cell line growth inhibition, 48 h

>  <Compound>
CNC(=O)O/N=C1\N(C)CN(c2ccccc2)C12CCN(CCCC(=O)c1ccc(F)cc1)CC2

>  <TGI>
> 100 µM

$$$$
>  <Compound>
COc1ccccc1CNCCCN1C(=O)c2ccc3c4c(ccc(c24)C1=O)C(=O)N(CCCNCCCCNCCCN)C3=O

>  <TGI>
11 µM

$$$$
>  <Compound>
CCn1c2ccccc2c2ccc(C3C4C(=O)N(c5cccc6ccccc56)C(=O)C4ON3C(C(N)=O)c3ccccc3)cc21 (stereo not given)

>  <TGI>
> 25 µM

$$$$
>  <Compound>
CC1=CC2(C)C=C[C@@H]1C(=O)[C@@]1(C)CC[C@@](O)(C(C)C)[C@H]1CC2

>  <TGI>
34.6 µM

$$$$
>  <Compound>
O=C(c1ccccc1)n1cc(/C=C/[N+](=O)[O-])c2ccccc21

>  <TGI>
> 100 µM

$$$$
>  <Compound>
Cc1ccc(C(=O)NC2C(=O)NC(C(C)C)C(=O)N3CCCC3C(=O)N(C)CC(=O)N(C)C(C(C)C)C(=O)OC2C)c2c1Oc1c(c(C(=O)NC3C(=O)NC(C(C)C)C(=O)N4CCCC4C(=O)N(C)CC(=O)N(C)C(C(C)C)C(=O)OC3C)c3nc(-c4ccccc4)c(=O)oc3c1C)N2 (stereo not given)

>  <TGI>
0.00918 µM

$$$$
>  <Compound>
CC(=O)Oc1ccc2c(=O)c(C(C)=O)coc2c1

>  <TGI>
> 100 µM

$$$$
>  <Compound>
COc1ccc(/C=C2/SC(=Nc3ccccc3)N(NC(=O)Cc3ccccc3)C2=O)cc1

>  <TGI>
> 100 µM

$$$$
>  <Compound>
Nc1c(S(=O)(=O)O)cc(S(=O)(=O)O)c2ccc(N=Nc3ccccc3)c(O)c12

>  <TGI>
> 100 µM

$$$$
>  <Compound>
CC1(C=O)CC(CCc2ccccc2)NC1Cc1ccc(O)cc1 (stereo not given)

>  <TGI>
31.5 µM

$$$$
>  <Compound>
Cc1ccc(NC(=O)c2cccc(OP(=O)(Nc3ccc(C)cc3)Nc3ccc(C)cc3)c2)cc1

>  <TGI>
> 100 µM

$$$$
>  <Compound>
CC(=O)OC(C(=O)[O][Ge]([CH3])([CH3])[CH3])c1ccccc1 (stereo not given)

>  <TGI>
> 100 µM

$$$$
>  <Compound>
COC1(OC)CCN(Cc2ccccc2)C1=O

>  <TGI>
31.8 µM

$$$$
>  <Compound>
CC(=O)N1C(c2[nH]c3ccccc3c2Cc2ccccc2)CCN1c1ccccc1 (stereo not given)

>  <TGI>
> 10 µM

$$$$
>  <Compound>
CCOc1cc(Cl)c(C(C)NC(=O)c2cccc(OC)c2)cc1OCC (stereo not given)

>  <TGI>
> 100 µM

$$$$
>  <Compound>
CCCCCC(=O)OC[n+]1ccc2c(C)c3[nH]c4ccc(OC)cc4c3c(C)c2c1

>  <TGI>
2.24 µM

$$$$
>  <Compound>
CCCCCOC(=O)Nc1nc(=O)n(C2OC(C)C(O)C2O)cc1F (stereo not given)

>  <TGI>
> 10000 µM

$$$$
>  <Compound>
CCN(N=O)C1C2(CCCC2)NC(=O)C12CCCC2 (stereo not given)

>  <TGI>
> 100 µM

$$$$
>  <Compound>
COc1cccc2nc(Nc3cccc(NC(=O)c4ccc(N5CCN(C)CC5)c(C(F)(F)F)c4)c3)ccc12

>  <TGI>
4.99 µM

$$$$
>  <Compound>
CS(=O)(=O)N1CCC(Nc2ncc(C(=O)c3c(F)cccc3F)c(N)n2)CC1

>  <TGI>
> 25 µM

$$$$
>  <Compound>
CC1CC(C)(O)C2C3(C)CCCC2(COC3=O)C12CCC1(CCOC1=O)O2 (stereo not given)

>  <TGI>
> 250 µM

$$$$
>  <Compound>
O=C1CC(n2ccnc2)c2c(Cl)sc(Cl)c21 (stereo not given)

>  <TGI>
48.1 µM

$$$$
>  <Compound>
CC1(C)N=C(N)N=C(N)N1c1ccc(OCC(=O)Nc2ccc(S(=O)(=O)F)cc2Cl)c(Cl)c1

>  <TGI>
> 100 µM

$$$$
>  <Compound>
NC(=O)c1c[nH]c2ncnc(N)c12

>  <TGI>
> 100 µM

$$$$
>  <Compound>
CN1CCCS/C1=C1/SC(=S)N(c2ccccc2)C1=O

>  <TGI>
> 100 µM

$$$$
>  <Compound>
CCOC(=O)C1=C(C)NC2SC(=O)/C(=C\c3cccc(Cl)c3)N2C1c1ccccc1 (stereo not given)

>  <TGI>
> 100 µM

$$$$
>  <Compound>
C[n+]1cccc(NC(=O)c2ccc3ccc4ccc(C(=O)Nc5ccc[n+](C)c5)nc4c3n2)c1

>  <TGI>
> 100 µM

$$$$
>  <Compound>
O=C1/C(=C/c2ccc(Cl)cc2)CN(Cc2cn(CCCNc3ccnc4cc(Cl)ccc34)nn2)C/C1=C\c1ccc(Cl)cc1

>  <TGI>
3.06 µM

$$$$
>  <Compound>
O=c1[nH][nH]c(=O)n1Cc1ccccc1

>  <TGI>
> 100 µM

$$$$
>  <Compound>
O=C(O)C1=Cc2cccc3cccc(c23)C1=O

>  <TGI>
> 100 µM

$$$$
>  <Compound>
COC(C)=NCCC1=CCCCC1

>  <TGI>
> 100 µM

$$$$
>  <Compound>
COc1ccc2nc3c4c(nccc4c2c1)-c1ncccc1C3=O

>  <TGI>
2.1 µM

$$$$
>  <Compound>
O=c1ccn(C/C=C/c2ccccc2)c(=S)n1C/C=C/c1ccccc1

>  <TGI>
> 100 µM

$$$$
>  <Compound>
O=C(Nn1c(-c2ccccc2)nc2ccccc2c1=O)c1cccc([N+](=O)[O-])c1

>  <TGI>
> 100 µM

$$$$
>  <Compound>
COc1cccc(C(=O)NNc2nc(Cl)nc(N3CCN(C(c4ccccc4)c4ccccc4)CC3)n2)c1

>  <TGI>
40 µM

$$$$
>  <Compound>
[O-]c1c2c(nn1-c1ccc(F)cc1)c1ccccc1c[n+]2Cc1ccccc1

>  <TGI>
41.3 µM

$$$$
>  <Compound>
COc1ccc2nc3ccc(OC)cc3c(S(=O)Cc3ccccc3)c2c1 (stereo not given)

>  <TGI>
35.3 µM

$$$$
>  <Compound>
CCOC(=O)c1ccc(N=C2Sc3nc4ccccc4n3C2=Nc2ccc(C(=O)OCC)cc2)cc1

>  <TGI>
> 100 µM

$$$$
>  <Compound>
C/C=C1\Oc2ccc(OC)cc2S1(=O)=O

>  <TGI>
> 100 µM

$$$$
>  <Compound>
C/C(=C\[Si](C)(C)c1ccco1)C(C)(O)[C@H](C)O (stereo not given in full)

>  <TGI>
> 100 µM

$$$$
